The values you see were collected from the supplement of paper PMC10567573.

B1: ZNF75A (parent)
chain: RTHTGEQPYTCSICRRNFSRRSSL

variants of: B1; assay: protein stability index of a GFP-peptide fusion (GPS, HEK-293T) (PSI 1-6); higher = more stable; conditions: c terminus: a fixed tail appended;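 also: lentivirally expressed fusions sorted by FACS into six bins by GFP to DsRed ratio, PSI derived from sequencing read proportions per bin multiplied by bin number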
Documented protein stability index across a set of variants
Give the value as a plain number.

# variantNotation, protein stability index
rows = [
    ("R20V", 2.46),
    ("S23A", 2.67),
    ("H3N", 3.82),
    ("H3G", 2.76),
    ("R15L", 1.54),
]

Q: Param item = T10Y ; retrieve measured protein stability index.
A: 2.5

Q: Param item = T10P ; retrieve measured protein stability index.
A: 3.09
